- procedure-details: photoluminescence quantum yield (fraction); solvent given as SMILES
- assay-setup: in NC=O
I'd appreciate it if you could supply photoluminescence quantum yield values for the items below.
One number for each entry.

Known results for compounds:
compound | photoluminescence quantum yield
COC(=O)C(Cc1ccc2oc(-c3ccc4c(c3)c3ccccc3n4-c3ccccc3)nc2c1)NC(=O)OC(C)(C)C (stereo not given) | 0.82
COC(=O)C(Cc1ccc2oc(-c3ccc(N(c4ccccc4)c4ccccc4)cc3)nc2c1)NC(=O)OC(C)(C)C (stereo not given) | 0.35
COCCOCCOCCOCCOc1cc(C=O)c(OCCOCCOCCOCCOC)cc1C=O | 0.31
N#Cc1ccc(C[C@H](N)C(=O)O)cc1 | 0.083

Now examine the next entry.
Query: # input compound: `COCCOCCOCCOc1ccc(OCCOCCOCCOC)c(C=O)c1` ; wanted: its photoluminescence quantum yield
Response: 0.43
